Sourced from patent US20230028110A1

- TARGET SYSTEM: T1, Vδ1 chain of the γδ TCR on human Vδ1 γδ T cells (human)
- T1 construct: whole, on cells; also called cell surface Vδ1 TCR; Vδ1-positive γδ T cells
- T1 sequence (A0A1B0GX56 22-115, stated change not applied): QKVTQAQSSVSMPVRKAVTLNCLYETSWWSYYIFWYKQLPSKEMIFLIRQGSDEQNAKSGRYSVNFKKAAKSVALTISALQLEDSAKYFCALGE
- PROCEDURE SUMMARY: flow cytometry binding to Vδ1 γδ T cells, donor TS164; column head printed 'IC50', unit nM from the chart axis and FIG. 34D
Reported values of EC50 for individual entries
Record the value in nM, omitting the unit from your answer.

>  <BINDER>
ADT1-7-3 (antibody, IgG1, V domains shown, IgG1) VH: EVQLVESGGGLVKPGGSLRLSCAASGFTFSDYYMSWIRQAPGKGLEWVSYISSSGSTIYYADSVKGRFTISRDNAKNSLYLQMNSLRAEDTAVYYCARVSYAEAFDIWGQGTLVTVSS VL: DIQMTQSPSSLSASVGDRVTIACRAGQSIGTYLNWYQQKPGKAPKLLIYVASSLQSGVPSRFSGSGSGTEFTLTISSLQPEDFATYYCQQSYSGLDTFGRGTKVEIK

>  <NUMERIC READOUT>
0.952

$$$$
>  <BINDER>
1245_P02_G04 (antibody, IgG1, V domains shown, also called ADT1-4; parental ADT1-4) VH: QVQLQQSGPGLVKPSQTLSLTCAISGDSVSSKSAAWNWIRQSPSRGLEWLGRTYYRSKWSTDYAASVKSRITINPDTSKNQLSLQLNSVTPEDTAVYYCARTWSGYVDVWGQGTLVTVSS VL: DIQMTQSPPALSASVGDRVTITCRASQDINDWLAWYQHKPGKAPKLLIYDASSLESGVPSRFSGSGSGTEFTLTISSLQPDDFATYYCQQSYSTPQVTFGQGTRLEIK

>  <NUMERIC READOUT>
576

$$$$
>  <BINDER>
ADT1-7-61 (antibody, IgG1, V domains shown, IgG1) VH: EVQLVESGGGLVKPGGSLRLSCAASGFTFSDYYMSWIRQAPGKGLEWVSYISSSGSTIYYADSVKGRFTISRDNAKNSLYLQMNSLRAEDTAVYYCARDDYDDAFDIWGQGTLVTVSS VL: DIQMTQSPSSLSASVGDRVTIACRAGQSIGTYLNWYQQKPGKAPKLLIYVASSLQSGVPSRFSGSGSGTEFTLTISSLQPEDFATYYCQQSASELLTFGRGTKVEIK

>  <NUMERIC READOUT>
196

$$$$

Ask | Give the measured EC50 of ADT1-7-20 (antibody, IgG1, V domains shown, IgG1) VH: EVQLVESGGGLVKPGGSLRLSCAASGFTFSDYYMSWIRQAPGKGLEWVSYISSSGSTIYYADSVKGRFTISRDNAKNSLYLQMNSLRAEDTAVYYCARVDYQEAFDIWGQGTLVTVSS VL: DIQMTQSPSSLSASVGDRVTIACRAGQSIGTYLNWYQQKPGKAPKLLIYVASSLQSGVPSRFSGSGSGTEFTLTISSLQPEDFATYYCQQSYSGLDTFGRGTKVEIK .
Reply | 2.68

Ask | Give its EC50 value. Item: 1245_P01_E07 (antibody, IgG1, V domains shown, also called ADT1-7; parental ADT1-7) VH: QVQLVESGGGLVKPGGSLRLSCAASGFTFSDYYMSWIRQAPGKGLEWVSYISSSGSTIYYADSVKGRFTISRDNAKNSLYLQMNSLRAEDTAVYYCARVDYADAFDIWGQGTLVTVSS VL: DIQMTQSPSSLSASVGDRVTIACRAGQSIGTYLNWYQQKPGKAPKLLIYVASSLQSGVPSRFSGSGSGTEFTLTISSLQPEDFATYYCQQSYSTLLTFGRGTKVEIK
Reply | 226
